Source listed as paper PMC10651481.

Exercise: for every item that follows, state its recorded Kd.
# test target: TDP-43-RRM (UniProt Q13148 104-262)
# Sequence (Q13148 104-262): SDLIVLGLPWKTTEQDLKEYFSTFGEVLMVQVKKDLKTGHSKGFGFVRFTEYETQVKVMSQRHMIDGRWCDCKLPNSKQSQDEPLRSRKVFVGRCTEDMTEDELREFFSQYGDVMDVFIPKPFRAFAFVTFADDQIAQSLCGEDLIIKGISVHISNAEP
# assay explanation: EMSA; EMSA: 10 mM HEPES pH 8.0, 50 mM KCl, 1 mM EDTA, 5% glycerol, 1 mM DTT, 40 U/ml RNase inhibitor, 4 C, 1 h; 20 fmol probe in 20 ul; 8% native PAGE
# assay setup: protein: recombinant; label: 5'-biotin; 3'-32P pCp

Query Kd for CCGUUCCGCCCAGGCCGCGCCCAGCUGGAAUGCA (ssRNA, m1A at position 12) [m1A RNA probe]
31 nM

Query Kd for CCGUUCCGCCCAGGCCGCGCCCAGCUGGAAUGCA (ssRNA, m6A at position 12) [m6A RNA probe]
81 nM

Query Kd for CCGUUCCGCCCAGGCCGCGCCCAGCUGGAAUGCA (ssRNA) [Control RNA probe (rA)]
73 nM
